Provenance of the data: patent US10800741B2

Would you kindly list IC50 for each of these compounds?
# System: KATO III (FGFR2 amp)
# ASSAY_PROTOCOL: In vitro growth inhibition of KATO III tumor cells (MTT/CCK8)
# Format: cell-based, Human
# MEASUREMENT_CONDITIONS: Homo sapiens, KATO III; in vitro growth inhibition (or induction of apoptosis), cells cultured 3 to 5 days, MTT (CCK8); read-out: IC50 KATO III (FGFR2 amp)
# Text: Tumor cell lines are an effective model for studying in vitro tumor growth inhibition. In the present invention, a representative tumor cell line was selected to determine the cell growth inhibition activity of the present compound. All cell lines used were from ATCC, DSMZ, and cell banks of the Chinese Academy of Sciences. […] Adherent cells were digested with 0.25% trypsin-EDTA (Gibco). […] The supernatant was discarded and the cells were counted. […]
Numbers only, in nM.

Some solved entries appear below for comparison.
structure_string=CNC(=O)c1cc2c(Oc3ccc(NC(=O)Nc4cc(C(C)(C)C)nn4C4CCCC4)c(Cl)c3)ccnc2cc1OC unit_info=nM data_value=1.36
structure_string=CC(=O)Nc1cc2c(Oc3ccc(NC(=O)Nc4cc(C(C)(C)C)n[nH]4)c(Cl)c3)ccnc2cc1OCCO unit_info=nM data_value=11.6
structure_string=COc1cc2nccc(Oc3ccc(NC(=O)Nc4cc(C(C)(C)C)n[nH]4)c(Cl)c3Cl)c2cc1C(N)=O unit_info=nM data_value=0.19
structure_string=COc1cc2nccc(Oc3ccc(NC(=O)Nc4cc(C(C)(C)C)on4)cn3)c2cc1C(N)=O unit_info=nM data_value=31
structure_string=CC(C)(C)c1cc(NC(=O)Nc2ccc(Oc3ccnc4cc(OCCCN5CCN(C(C)(C)C)CC5)c(C(N)=O)cc34)cc2Cl)[nH]n1 unit_info=nM data_value=1.02

For every listed record, write down its IC50.
1. COCCNC(=O)c1cc2c(Oc3ccc(NC(=O)Nc4cc(C(C)(C)C)n[nH]4)c(Cl)c3)ccnc2cc1OC
2. CC(C)(C)c1cc(NC(=O)Nc2ccc(Oc3ccnc4c(F)cccc34)cc2Cl)no1

[1.89, 498]
